target: GAS41-WT interaction with H3.3 (Homo sapiens); assay: NanoBiT assay, LgBiT-GAS41-WT and SmBiT-H3.3 in HEK293T cells; settings: 24 h treatment, 293T cells, estimated, read-out: IC50, inhibition of the luminescence signal
Sequence (O95619 whole entry): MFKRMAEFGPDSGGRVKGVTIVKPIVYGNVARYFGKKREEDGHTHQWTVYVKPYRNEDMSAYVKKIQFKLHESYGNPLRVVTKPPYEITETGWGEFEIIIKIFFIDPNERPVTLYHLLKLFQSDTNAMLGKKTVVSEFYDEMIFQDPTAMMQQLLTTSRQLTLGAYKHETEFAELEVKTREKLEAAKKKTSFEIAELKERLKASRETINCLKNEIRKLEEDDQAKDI
pIC50: −log10 of the molar value.

MOLECULE_SMILES	pIC50
O=C(Nc1ccc(C(=O)N2CC(c3nc4ccccc4s3)C2)s1)[C@@H]1C[C@@H](OCCCCO[C@H]2CN[C@H](C(=O)Nc3ccc(C(=O)N4CC(c5nc6ccccc6s5)C4)s3)C2)CN1	5.22

----------
molecular target: His6-tagged full-length GAS41 (Homo sapiens, UniProt O95619); construct: using His6-tagged full-length GAS41 and biotinylated-, di-crotonylated-H3 peptide; assay: AlphaScreen competition assay with full-length GAS41 and biotin-H3K23crK27cr; format: binding; settings: AlphaScreen, 100 nM MOCR-his6-Gas41, 25 nM H3K23crK27cr-biotin; read-out: IC50
MEASURED_METRIC: IC50 (µM)

> print(dat)
                 molecule.smiles  measured.metric  quantity.unit  reported
1  CC(C)(C)c1ccc(C(=O)N2CCCC2)s1             IC50             µM        73
